measured-attribute: melting point

Solved cases (4 shown):
[
  {
    "compound": "Cc1cc(C)c(Nc2nc(C)ccc2S(=O)(=O)c2ccc(OCc3ccc(F)cc3)cc2)c(C)c1 [Example 22]",
    "melting point": "178 to 180 °C"
  },
  {
    "compound": "Cc1cc(C)c(Nc2nc(C)ccc2S(=O)(=O)c2ccc(OCc3ccccc3C#N)cc2)c(C)c1 [Example 28]",
    "melting point": "208 to 210 °C"
  },
  {
    "compound": "COc1ccccc1COc1ccc(S(=O)(=O)c2ccc(C)nc2Nc2ccc(S(C)(=O)=O)cc2Cl)cc1 [Example 7]",
    "melting point": "100 to 102 °C"
  },
  {
    "compound": "Cc1cc(C)c(Nc2nc(C)ccc2S(=O)(=O)c2ccc(OCc3c(F)cccc3[N+](=O)[O-])cc2)c(C)c1 [Example 34]",
    "melting point": "132 to 134 °C"
  }
]

Proceeding to the next compound to report its melting point.
Problem: Give the value of melting point reported for the following: Cc1cc(C)c(Nc2nc(C)ccc2S(=O)(=O)c2ccc(OCCCCC#N)cc2)c(C)c1 [Example 15]
Result: 115 to 116 °C

----------
Target chain: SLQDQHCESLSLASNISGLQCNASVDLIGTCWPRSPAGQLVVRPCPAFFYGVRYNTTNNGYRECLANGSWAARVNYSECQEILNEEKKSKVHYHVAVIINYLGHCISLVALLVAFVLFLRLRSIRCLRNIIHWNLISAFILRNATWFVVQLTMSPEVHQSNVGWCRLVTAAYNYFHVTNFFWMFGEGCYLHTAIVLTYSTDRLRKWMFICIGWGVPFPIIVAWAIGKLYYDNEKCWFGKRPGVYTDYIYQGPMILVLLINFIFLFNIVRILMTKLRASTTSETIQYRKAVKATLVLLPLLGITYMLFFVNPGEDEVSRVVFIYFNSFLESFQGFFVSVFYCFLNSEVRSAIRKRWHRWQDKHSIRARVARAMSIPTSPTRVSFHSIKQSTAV
// reported Ki per item

[
  {
    "substance-smiles": "COc1cc(COc2ccc(S(=O)(=O)c3ccc(C)nc3Nc3c(C)cc(C)cc3C)cc2)cc(OC)c1",
    "Ki": "≤ 0.1 µM"
  },
  {
    "substance-smiles": "COc1cccc(COc2ccc(S(=O)(=O)c3ccc(C)nc3Nc3c(C)cc(C)cc3C)cc2)c1OC",
    "Ki": "≤ 0.1 µM"
  },
  {
    "substance-smiles": "CCOC(=O)COc1ccc(S(=O)(=O)c2ccc(C)nc2Nc2c(C)cc(C)cc2C)cc1",
    "Ki": "0.5 to 5 µM"
  },
  {
    "substance-smiles": "Cc1cc(C)c(Nc2nc(C)ccc2S(=O)(=O)c2ccc(F)cc2)c(C)c1",
    "Ki": "0.1 to 0.5 µM"
  }
]

Proceeding to the next molecule to report its Ki.
Problem: Give the value of Ki reported for the following: `COc1ccc(S(=O)(=O)c2ccc(C)nc2Nc2c(C)cc(C)cc2C)cc1`
Result: 0.1 to 0.5 µM
